# Test system: panel of trained tasters
# assayText: Taste evaluation in water
# Assay type: in vivo
# experimentalConditions: 10 ppm in water
propertyLabel: aroma

Examples with their reported aroma follow.
| entrySmiles | propertyLabel | reportedResult |
| --- | --- | --- |
| Oc1ccccc1SCCc1ccccn1 | aroma | Green pepper |
| COc1cccc(SCCc2ccccn2)c1 | aroma | Green pepper |
| Cl.c1ccc(SCCc2ccccn2)cc1 | aroma | green |
| c1ccc(SCCc2ccccn2)cc1 | aroma | green |

Let us move to another entry and its aroma.
(Q) Fill blank: measured aroma of the molecule Cc1ccc(SCCc2ccccn2)cc1.Cl is ____.
(A) green

* * *

# Test system: panel of trained tasters
# assayText: Taste evaluation in water
# Format: in vivo
# experimentalConditions: 20 ppm in water
propertyLabel: aroma

| entrySmiles | reportedResult |
| --- | --- |
| COc1cccc(SCCc2ccccn2)c1 | Green pepper |
| Oc1ccccc1SCCc1ccccn1 | Green pepper |
| Cc1ccc(SCCc2ccccn2)cc1.Cl | green |
| Cl.c1ccc(SCCc2ccccn2)cc1 | green |

Origin of measurements: patent US10178875B2
